The following compounds are listed with their measured GI50 values.
# System: A549 NSCLC
# test protocol: NCI tumour cell line growth inhibition, 48 h

A selection of reference data follows.
N#C/C(=C\c1ccc(Br)cc1)n1nnc2c(F)cccc21 = 1930 nM
COc1ccc(C(=O)c2sc3nc4c(cc3c2N)CCCC4)cc1OC = 3280 nM

[in] Name the recorded GI50 of the compound listed here: CCc1ccc(C(=O)/C=C/C23c4ccccc4C(c4ccccc42)C2C(=O)NC(=O)C23)cc1 (stereo not given)
[out] 2070 nM

[in] State its GI50: COc1cccc2c1O/C(=C\c1ncc([N+](=O)[O-])n1C)C2=O
[out] 509 nM

[in] State, in one line, measured GI50 of C=C1C(O)C2C(=C(CCC3CC3)C13CC3)C(=O)C(C)(C)C2O (stereo not given)
[out] > 100000 nM

====

# Test system: NCI-H460 lung
Where a SMILES comes first, the peptide text is derived from it. [ ]: non-standard residue; d: D form. The star is where a group is joined. ξ: configuration not given here. NMeF = CN[C@@H](Cc1ccccc1)C(=O)O; NMeV = CN[C@H](C(=O)O)C(C)C; ξNMeN = CNC(CC(N)=O)C(=O)O; NMeA = CN[C@@H](C)C(=O)O; ξNMeV = CNC(C(=O)O)C(C)C; Boc = CC(C)(C)OC(=O)*
In this exercise, the only acceptable responses are active, inactive

[in] Kindly provide the recorded test outcome for the following compound: COc1cc2cnc3c(c2c(OC)c1OC)Cc1cc2c(cc1-3)OCO2
[out] inactive

[in] For Cc1nc2cc(-c3nn(C(C)C)c4ncnc(N)c34)ccc2o1 , which call appears in the assay record?
[out] active

[in] Look up the recorded call for COC(=O)[C@H](C)N(C)C(=O)C(CC(N)=O)N(C)C(=O)[C@H](Cc1ccccc1)N(C)C(=O)[C@@H]1CCCN1C(=O)[C@H](C(C)C)N(C)C(=O)C(C(C)C)N(C)C(=O)[C@@H](NC(=O)OC(C)(C)C)C(C)C (stereo partly drawn) (Boc-V[ξNMeV][NMeV]P[NMeF][ξNMeN][NMeA]-OMe) in this test.
[out] inactive

====

# Tested on: U251 CNS
Your reply should match one of these outcome classes. active, inactive

Worked cases, answers included:
CC1(C)CC[C@]2(C(=O)Nc3ccccn3)CC[C@]3(C)C(=CC[C@@H]4[C@@]5(C)C/C(=C/c6ccncc6)C(=O)C(C)(C)[C@@H]5CC[C@]43C)[C@@H]2C1 = inactive
COc1cc(-c2nn(-c3cccc(NC(=O)Nc4cccc(C(F)(F)F)c4)c3)cc2-c2ccncc2)ccc1Cl = inactive
O=C(CN(/C=C/C(=O)C(F)(F)F)c1ccc(Cl)cc1)c1ccc(F)cc1 = inactive

Turning now to a further record.
[in] Test call, this compound: C[CH2][Sn]([CH2]C)([O]C(=O)c1c(F)cccc1F)[O][Sn]([CH2]C)([CH2]C)[O]C(=O)c1c(F)cccc1F
[out] inactive

====

# System: A498 renal
# test protocol: NCI tumour cell line growth inhibition, 48 h
readout type: TGI

The cases that follow already have their TGI on record.
Clc1ccc(Cn2c(CN3CCCC3)nc3ccccc32)cc1 = 31.3 µM
C/C(CC(=O)Nc1ccc(Cl)c(Cl)c1)=N/NC(=O)C[N+](C)(C)C = > 100 µM
O=[N+]([O-])c1nccn1COCCO = > 100 µM
COc1ccc(/C(Cl)=C(\CN(C)C)c2ccc(OC)c(OC)c2)cc1OC = > 100 µM
CC(=O)OCC1OC(Nc2ccc3nc(C)n(-c4ccccc4)c(=O)c3c2)C(OC(C)=O)C(OC(C)=O)C1OC(C)=O (stereo not drawn) = > 50 µM

[in] For the molecule O=C(NC(O)(C(F)(F)F)C(F)(F)F)c1ccccc1 , give its reported TGI.
[out] > 100 µM

[in] Report TGI for C=C(C)c1cc(C(C)(C)C)cc(C(=C)C)c1S(C)(=O)=O
[out] > 100 µM

[in] Identify the reported TGI for the following entry. CCOC(=O)/C(C#N)=C\C=C(\Sc1nc2ccccc2s1)c1ccc(Cl)cc1
[out] 72.5 µM

[in] Quote TGI reported for COc1cc(OC)c(/C=C/c2cc[n+](C)c3ccccc23)c(OC)c1 please.
[out] 6.04 µM

[in] State its TGI: O=C1OC2C=CCC1C2 (stereo not drawn)
[out] > 100 µM

[in] Supply TGI value. Item: COc1cc2c3c(n(CCCNC4=NCCS4)c(=O)c2cc1OC)-c1cc2c(cc1C3=O)OCO2
[out] 7.68 µM

[in] Give the measured TGI for O=C(c1ccccc1)c1ccc2cccc(OC3OC(CO)C(O)C(O)C3O)c2n1 (stereo not drawn)
[out] 82 µM

[in] Supply TGI value. Item: CCOc1ccc(NC(=O)/C(=C\c2ccc(C)cc2)C(C)=O)cc1
[out] > 100 µM

[in] Supply TGI value. Item: O=S1OC[C@H](CCCl)O1 (stereo partly drawn)
[out] > 100 µM

[in] Output measured TGI for this item: N#CC(C#N)=Cc1c[nH]c(=O)[nH]c1=O
[out] > 100 µM

[in] # return recorded TGI for input COC1=CC(=O)c2c(cc(COP(N)(=O)N(CCBr)CCBr)n2C)C1=O (stereo not drawn)
[out] 2.88 µM

[in] Please look at this molecule and report its TGI: CCSc1n/c(=C\c2ccc(N(C)C)cc2)c2nnnn12
[out] > 100 µM

[in] Give recorded TGI. Cc1c(C(=O)O)n2c(C)nnc2c2ccccc12
[out] > 100 µM

[in] Please report the measured TGI for C=C(CCOC)CCC1CCCCC/C1=N\N(C)C (stereo not drawn)
[out] > 100 µM

[in] Supply recorded TGI for C=C=C(Sc1ccccc1)C(C)(C)O here.
[out] > 100 µM

[in] Determine its reported TGI: COc1ccc(/C=C2\CCC(CN3CCOCC3)C2=O)cc1 (stereo not drawn)
[out] 21.4 µM

[in] Let me know recorded TGI for Cc1[nH]c(=O)nc2nc3ccc(Cl)cc3c(N(CCO)CCO)c12 , thanks.
[out] > 100 µM

[in] Specify measured TGI for O=c1c2cc(I)ccc2nc(Sc2ccc([N+](=O)[O-])cc2[N+](=O)[O-])n1Cc1ccccc1 .
[out] 21.3 µM
